Assignment: determine reported No. of toxic deaths/total for the given compounds.
measurement-description: Toxic deaths in mice treated in the P 388 leukemia test
Type: in vivo
experimental-parameters: dose 6.6 mg/kg i.p. on day 1 after tumor cell inoculation; as hydrochloride

INSERT INTO results (compound, result) VALUES
  ('COc1cccc2c1C(=O)c1c(O)c3c(c(O)c1C2=O)C[C@@](O)(C(C)=O)C[C@@H]3O[C@H]1C[C@H](N)[C@H](O)[C@H](C)O1 [Daunorubicin, reference compound]', '28/48'),
  ('COc1cccc2c1C(=O)c1c(O)c3c(c(O)c1C2=O)C[C@@](O)(C(=O)CO)C[C@@H]3O[C@H]1C[C@H](N)[C@H](O)[C@H](C)O1 [Doxorubicin, reference compound]', '0/28'),
  ('COc1cccc2c1C(=O)c1c(O)c3c(c(O)c1C2=O)C[C@@](O)(C(C)=O)C[C@@H]3O[C@H]1C[C@H](N)[C@@](C)(OC)[C@H](C)O1', '0/8'),
  ('COc1cccc2c1C(=O)c1c(O)c3c(c(O)c1C2=O)C[C@@](O)(C(=O)CO)C[C@@H]3O[C@H]1C[C@H](N)[C@](C)(OC)[C@H](C)O1 [4''-C-Methyl-4''-O-methyl-adriamycin]', '0/10'),
  ('COc1cccc2c1C(=O)c1c(O)c3c(c(O)c1C2=O)C[C@@](O)(C(=O)CO)C[C@@H]3O[C@H]1C[C@H](N)[C@@](C)(OC)[C@H](C)O1', '0/8');

Read the next record carefully.
Q: Suppose we examine the compound COc1cccc2c1C(=O)c1c(O)c3c(c(O)c1C2=O)C[C@@](O)(C(C)=O)C[C@@H]3O[C@H]1C[C@H](N)[C@](C)(OC)[C@H](C)O1 [4'-C-methyl-4'-O-methyl-daunorubicin (V), 4'-C-Methyl-4'-O-methyl-daunomycin] ; what No. of toxic deaths/total value has been reported?
Result: 0/18

----------
measurement-description: Toxic deaths in mice treated in the P 388 leukemia test
Type: in vivo
experimental-parameters: dose 10.0 mg/kg i.p. on day 1 after tumor cell inoculation; as hydrochloride
Assignment: determine reported No. of toxic deaths/total for the given compounds.

Answered examples (3):
INSERT INTO assay_data (compound, result) VALUES
  ('COc1cccc2c1C(=O)c1c(O)c3c(c(O)c1C2=O)C[C@@](O)(C(=O)CO)C[C@@H]3O[C@H]1C[C@H](N)[C@](C)(OC)[C@H](C)O1', '2/17'),
  ('COc1cccc2c1C(=O)c1c(O)c3c(c(O)c1C2=O)C[C@@](O)(C(=O)CO)C[C@@H]3O[C@H]1C[C@H](N)[C@@](C)(OC)[C@H](C)O1', '0/8'),
  ('COc1cccc2c1C(=O)c1c(O)c3c(c(O)c1C2=O)C[C@@](O)(C(=O)CO)C[C@@H]3O[C@H]1C[C@H](N)[C@H](O)[C@H](C)O1 [Doxorubicin, reference compound]', '5/28');

Q: Suppose we examine the compound COc1cccc2c1C(=O)c1c(O)c3c(c(O)c1C2=O)C[C@@](O)(C(C)=O)C[C@@H]3O[C@H]1C[C@H](N)[C@@](C)(OC)[C@H](C)O1 ; what No. of toxic deaths/total value has been reported?
Result: 0/8

----------
measurement-description: Toxic deaths in mice treated in the P 388 leukemia test
Type: in vivo
experimental-parameters: dose 4.4 mg/kg i.p. on day 1 after tumor cell inoculation; as hydrochloride
measurement-name: No. of toxic deaths/total

INSERT INTO assay_data (compound, result) VALUES
  ('COc1cccc2c1C(=O)c1c(O)c3c(c(O)c1C2=O)C[C@@](O)(C(C)=O)C[C@@H]3O[C@H]1C[C@H](N)[C@H](O)[C@H](C)O1 [Daunorubicin, reference compound]', '3/48'),
  ('COc1cccc2c1C(=O)c1c(O)c3c(c(O)c1C2=O)C[C@@](O)(C(=O)CO)C[C@@H]3O[C@H]1C[C@H](N)[C@](C)(OC)[C@H](C)O1 [4''-C-Methyl-4''-O-methyl-adriamycin]', '0/10'),
  ('COc1cccc2c1C(=O)c1c(O)c3c(c(O)c1C2=O)C[C@@](O)(C(=O)CO)C[C@@H]3O[C@H]1C[C@H](N)[C@H](O)[C@H](C)O1 [Doxorubicin, reference compound]', '0/28');

Read the next record carefully.
Q: Suppose we examine the compound COc1cccc2c1C(=O)c1c(O)c3c(c(O)c1C2=O)C[C@@](O)(C(=O)CO)C[C@@H]3O[C@H]1C[C@H](N)[C@@](C)(OC)[C@H](C)O1 ; what No. of toxic deaths/total value has been reported?
Result: 0/8

All values here come from patent US4265885A.
